system: ZR-75-30 (Breast Carcinoma); assay: combination Emax (second highest fraction inhibited in the dose matrix, 72 h); higher = more inhibition; extreme values may be limits of the assay
Property: combination Emax; scope: individual compounds
Answer using only a numeral; do not append any unit.

Consider the following illustrative entries.
Compound: CN(CCO)CC[C@H](CSc1ccccc1)Nc1ccc(S(=O)(=O)NC(=O)c2ccc(N3CCC([C@@H](O)c4ccccc4-c4ccc(Cl)cc4)CC3)cc2)cc1S(=O)(=O)C(F)(F)F [AZD4320] + CN(C)CCCOc1ccc(-c2ccc3ncc4c(c3c2)n(C2CCOCC2)c(=O)n4C)cn1 [AZD0156] (first compound max 1 µM, 7x7, partner max 1 µM)
Assayed target: ZR-75-30 (Breast Carcinoma)
combination Emax: 0.169

Compound: Cc1c2c(nn1C)CSCc1cc(n(C)n1)CSc1cc(c3ccccc3c1)OCCCc1c(C(=O)O)n(C)c3c-2c(Cl)ccc13 [AZD5991] + CS(=O)(=O)CCNCc1ccc(-c2ccc3ncnc(Nc4ccc(OCc5cccc(F)c5)c(Cl)c4)c3c2)o1 [Lapatinib] (first compound max 1 µM, 7x7, partner max 10 µM)
Assayed target: ZR-75-30 (Breast Carcinoma)
combination Emax: 0.974

Which measured combination Emax belongs to C=CCn1c(=O)c2cnc(Nc3ccc(N4CCN(C)CC4)cc3)nc2n1-c1cccc(C(C)(C)O)n1 [AZD1775] + C1CN(CCC1(C(=O)N[C@@H](CCO)C2=CC=C(C=C2)Cl)N)C3=NC=NC4=C3C=CN4 [Capivasertib] (first compound max 3 µM, partner max 3 µM) , tested on ZR-75-30 (Breast Carcinoma)?
0.441
